B1: ZC3H15 (parent)
chain: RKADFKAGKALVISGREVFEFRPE

# Variants of: B1
# experimentalDetails: protein stability index of a GFP-peptide fusion (GPS, HEK-293T) (PSI 1-6); higher = more stable;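 further: lentivirally expressed fusions sorted by FACS into six bins by GFP to DsRed ratio, PSI derived from sequencing read proportions per bin multiplied by bin number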
# conditionInfo: c terminus: a fixed tail appended
observedProperty: protein stability index
Number, no unit, nothing else.

Example variants with recorded protein stability index:
[in] Which protein stability index reading was recorded for the variant "V12R" ?
[out] 3.31

[in] Now try "A10N" .
[out] 3.16

[in] Also, "F19K" please.
[out] 3.47

[in] Same read-out for "K9D" ?
[out] 3.18

[in] Check "E20C" too.
[out] 2.68

[in] Next record, please: "S14K"
[out] 3.32

[in] Now give it for "G8H" too.
[out] 2.66

[in] Likewise for "E24R" ?
[out] 2.43

Others:
[in] Which protein stability index reading was recorded for the variant "R16H" ?
[out] 2.98

[in] Further, for "F5E" ?
[out] 4.18

[in] Here is the next variant: "K2S"
[out] 3.02

[in] What do you get for "I13K" ?
[out] 3.79

[in] Now consider "E17M" and answer again.
[out] 1.14
